- measurement_description: Motesanib plasma pharmacokinetics (LC-MS/MS)
- Format: in vivo, human
- experimental_parameters: human, plasma; motesanib 125 mg oral QD without trebananib; listed as 'Mean'
quantity_kind: Tmax (h)

                                 smiles_str  unit_label  result_value
0  CC1(C)CNc2cc(NC(=O)c3cccnc3NCc3ccncc3)ccc21           h             1

---

- measurement_description: Motesanib plasma pharmacokinetics (LC-MS/MS)
- Assay type: in vivo, human
- experimental_parameters: human, plasma; motesanib 75 mg oral QD without trebananib; listed as 'Mean'
quantity_kind: Tmax (h)

>>> print(df.to_string())
                                 smiles_str  unit_label  result_value
0  CC1(C)CNc2cc(NC(=O)c3cccnc3NCc3ccncc3)ccc21           h           1.1
